# Assayed Target: PAPD5 (Homo sapiens)
# Construct: made in house
# Sequence (Q8NDF8 68-698 isoform Q8NDF8-5): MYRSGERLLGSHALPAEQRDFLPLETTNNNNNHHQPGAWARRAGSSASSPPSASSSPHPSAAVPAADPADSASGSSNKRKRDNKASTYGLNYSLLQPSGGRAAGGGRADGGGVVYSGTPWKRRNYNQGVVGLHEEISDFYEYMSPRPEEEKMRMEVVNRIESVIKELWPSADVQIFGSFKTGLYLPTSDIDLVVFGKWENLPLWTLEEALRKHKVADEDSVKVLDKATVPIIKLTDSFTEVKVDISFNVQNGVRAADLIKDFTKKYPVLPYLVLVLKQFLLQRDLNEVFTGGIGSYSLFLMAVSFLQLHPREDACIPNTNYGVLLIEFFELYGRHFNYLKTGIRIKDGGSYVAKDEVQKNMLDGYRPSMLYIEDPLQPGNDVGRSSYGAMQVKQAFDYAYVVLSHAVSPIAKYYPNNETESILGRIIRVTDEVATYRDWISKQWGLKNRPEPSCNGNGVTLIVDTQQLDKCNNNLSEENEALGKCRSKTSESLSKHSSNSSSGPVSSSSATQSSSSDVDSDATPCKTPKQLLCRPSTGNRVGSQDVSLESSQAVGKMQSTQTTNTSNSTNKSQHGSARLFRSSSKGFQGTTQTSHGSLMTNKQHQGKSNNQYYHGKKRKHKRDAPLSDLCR
# Experiment Description: High-throughput luminescence (KinaseGlo) RNA polyadenylation assay, ATP utilization by recombinant PAPD5
# Assay type: biochemical
# Applied Conditions: Table 4 (entries of Table 5); 10 μM compound; ratio of luminescence with inhibitor to DMSO
Assay Endpoint: Fold-change determined at compound concentration 10 μM

Molecule: COc1ccc(-c2nc(N3CCOCC3)c3sc(CN(C)c4ncc(C(=O)NO)cn4)cc3n2)cn1
Assayed Target: PAPD5 (Homo sapiens)
Value Measured: 1.382

Molecule: NC(=O)C1CCN(c2ncnc3sc4c(c23)CCCC4)CC1
Assayed Target: PAPD5 (Homo sapiens)
Value Measured: 1.292

Molecule: CCc1nnc(NC(=O)c2cc(=O)c3cc(C)c(C)cc3o2)s1
Assayed Target: PAPD5 (Homo sapiens)
Value Measured: 1.211

Molecule: CCSc1nnc(NC(=O)c2cc(=O)c3cc(C)c(C)cc3o2)s1
Assayed Target: PAPD5 (Homo sapiens)
Value Measured: 1.241

Molecule: N#C/C(=C\c1ccc(-c2ccc(C(=O)O)cc2)o1)C(=O)Nc1ccccc1C(=O)O
Assayed Target: PAPD5 (Homo sapiens)
Value Measured: 1.32

Molecule: c1cc(CNc2ncnc3sc4c(c23)CCCC4)ccn1
Assayed Target: PAPD5 (Homo sapiens)
Value Measured: 1.249

Molecule: Cc1ccc(C(=O)Nc2c(-c3ccccc3)nc3ccccn23)cc1
Assayed Target: PAPD5 (Homo sapiens)
Value Measured: 1.214

Molecule: CN1C(=O)C(c2c(-c3ccc4ccccc4c3)[nH]c3[nH]c(=O)[nH]c(=O)c23)c2ccccc21 (centres unmarked)
Assayed Target: PAPD5 (Homo sapiens)
Value Measured: 1.272

Data provenance: patent US12171755B2
